Reported values of Kd for individual entries
- EXPERIMENTAL_SYSTEM: T1, mouse IL-2 receptor βγc heterodimer (mIL-2Rβγc), soluble (mouse, UniProt P16297 27-240; P34902 23-263, biotin on the C-terminal biotin acceptor peptide)
- T1 construct: extracellular domain; also called MmIL-2Rβγc; mIL-2Rβνc
- T1 sequence 1: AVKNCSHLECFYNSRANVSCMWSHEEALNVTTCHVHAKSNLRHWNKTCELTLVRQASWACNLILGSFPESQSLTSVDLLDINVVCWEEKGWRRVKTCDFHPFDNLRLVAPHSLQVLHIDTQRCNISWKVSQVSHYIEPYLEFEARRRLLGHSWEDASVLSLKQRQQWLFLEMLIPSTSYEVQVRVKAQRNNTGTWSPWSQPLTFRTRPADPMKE
- T1 sequence 2: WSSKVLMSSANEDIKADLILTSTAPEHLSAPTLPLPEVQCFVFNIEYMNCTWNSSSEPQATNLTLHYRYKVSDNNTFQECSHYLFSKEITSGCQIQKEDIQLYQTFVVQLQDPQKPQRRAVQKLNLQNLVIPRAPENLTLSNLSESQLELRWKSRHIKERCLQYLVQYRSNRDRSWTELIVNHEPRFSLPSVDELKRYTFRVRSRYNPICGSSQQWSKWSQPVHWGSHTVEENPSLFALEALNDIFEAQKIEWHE
- PROTOCOL_SUMMARY: SPR, equilibrium titration; IL-2Rγ on streptavidin chip, saturating IL-2Rβ in solution
OBSERVED_PROPERTY: Kd (nM)

BINDER	OBSERVED_PROPERTY	MEASUREMENT_UNITS	REPORTED_RESULT
G2_neo2_40_1F_seq12 (designed binder) TEKKLQLLVEHALLDALMILNLWSESNEKLNRIITTMQSWIFTGRIDPDKAEELAKLVEELREEARERGIDTEDYVSNLKVILKELS	Kd	nM	39.1
G1_neo2_40_1F_H5 (designed binder) STKKTQLLIEHALLDALHMSRKLPEPNEKLSRIITTMQSWIFTGKIDGDGAQHLAKEVEELEQEHEKRGGEVEDEASNLKVILLELA	Kd	nM	5120
G2_neo2_40_1F_seq27 (designed binder) TKKKAQLLAEHALLDALMLLNLSSESNERLNRIITWLQSIIFTGTYDPDMVKEAVKLADEIEDEMRKRGIDTEDYVSNLRVILQELA	Kd	nM	13.6
G2_neo2_40_1F_dsn40 (designed binder, E. coli, N-terminal 6xHis tag and thrombin site) PEKKRQLLAEHALLDALMILNIIRTNSDNTESKLEDYISNLKVILEEIARLMESLGLSDEAEKAKEAMRLADKAGSTASEEEKKEAMNRVITWAQSWIFN	Kd	nM	69.2
G2_neo2_40_1F_dsn29 (designed binder, E. coli, N-terminal 6xHis tag and thrombin site) EDYYSNLKVILEELAREMERNGLSDKAEEWRQWKKIVERIRQIRSNNSDLNEAKELLNRLITYIQSQIFEISERIRETDQEKKEESWKKWQLLLEHALLDVLMLLND	Kd	nM	38.2
G1_neo2_40_1F_H4 (designed binder) STKKTQLLLEHALLDALHMSRELPEPNEKLNRIITDMQSWIFTGKIDGDGAQDLAKEVEELEQEHEKRGGDVEDYASNLKVILLELA	Kd	nM	392
G2_neo2_40_1F_seq04 (designed binder) TTKKIQLLVEHALLDALMILNLSSESNEKLNRIITTLQSWIFRGEIDPDRARELAKLLEEIREEMRKRGIDTEDYVSNMIVIIRELA	Kd	nM	80
Neoleukin-2/15 (designed binder, 100 residues; also called Neo-2/15; Neolukin-2/15) PKKKIQLHAEHALYDALMILNIVKTNSPPAEEKLEDYAFNFELILEEIARLFESGDQKDEAEKAKRMKEWMKRIKTTASEDEQEEMANAIITILQSWIFS	Kd	nM	38.4
G2_neo2_40_1F_dsn30 (designed binder, E. coli, N-terminal 6xHis tag and thrombin site) PEKKRQLLLEHILLDALMLLNLLETNPQNTESKFEDYISNAEVIAEELAKLMESLGLSDEAEKFKKIKQWLREVWRIWSSTNWSTLEDKARELLNRIITTIQSQIFY	Kd	nM	925
G1_neo2_40_1F_H1 (designed binder) STKKTQLLIEHALLDALDMSRNLPEPNEKLSRIITTMQSWIFTGKIDGDGAQQLAKEVEELEQEHEKRGEDVEDEASNLKVILLELA	Kd	nM	2650
G1_neo2_40_1F_M1 (designed binder) STEKTQLAAEHALRDALMLKHLLNEPNEKLARIITTMQSWQFTGKIDGDGAQELAKEVEELQQEHEVRGIDVEDYASNLKVILLHLA	Kd	nM	4.3
G1_neo2_40_1F_H2 (designed binder) STKKTQLLLEHALLDALHMRRNLPEPNEKLSRIITTMQSWIFTGKIDGDGAQELAKEVEELEQEHEKRGRDVEDDASNLKVILLELA	Kd	nM	964
mouse interleukin-2 (mIL-2) (ligand, UniProt P04351 21-169, looked up, range 1-149; Baculovirus expression for SPR; also called MmIL-2; mouse IL-2) APTSSSTSSSTAEAQQQQQQQQQQQQHLEQLLMDLQELLSRMENYRNLKLPRMLTFKFYLPKQATELKDLQCLEDELGPLRHVLDLTQSKSFQLEDAENFISNIRVTVVKLKGSDNTFECQFDDESATVVDFLRRWIAFCQSIISTSPQ	Kd	nM	126
G2_neo2_40_1F_dsn36 (designed binder, E. coli, N-terminal 6xHis tag and thrombin site) PKKKIQLLAEHALLDALMILNIVKTNSQNAEEKLEDYASNVEVILEEIARLMESGDQKDEAEKAKRMKEWMKRIKTTASEDEQEEMANRIITLLQSWIFS	Kd	nM	568
G1_neo2_40_1F_M2 (designed binder) STKNTQLAAEDALLDALMLRNLLNEPNEKLARIITTMQSWQFTEKIDGDGAQELAKEVEELQQEHEERGIDVEDYASNLKVILLQLA	Kd	nM	886
G1_neo2_40_1F_M3 (designed binder) STEKTQHAAEDALRDALMLRNLLNEPNEKLARIITTMQSWQFTEKIDGDGAQELAKEVEELQQEHEVRGIDVEDYASNLKVILLQLA	Kd	nM	64.8
G2_neo2_40_1F_seq16 (designed binder) TKKKIQLLVEHALLDALMILNLSSKSNEKLNRIITTMQSWIFNGTIDPDRARELAKLVEEIRDEMEKNGIDTEDYVSNLKVILEELA	Kd	nM	71.5
